Tested on: LOX IMVI melanoma
Assay: NCI tumour cell line growth inhibition, 48 h
assay_readout: TGI (µM)
One number for each entry, in µM.

CC(C)[C@@H](C(=O)O[C@@H]1/C=C/C(=O)O[C@@H](C)CCC/C=C/[C@@H]2C[C@H](O)C[C@H]21)N(C)C = 39.9

Tell me measured TGI for CCN1CCN(C(=O)[C@]23CC[C@@H](C)[C@H](C)[C@@H]2C2=CC[C@@H]4[C@@]5(C)CCC(=O)C(C)(C)[C@@H]5CC[C@@]4(C)[C@]2(C)CC3)CC1 please. 1.52

* * *

Tested on: NCI-H460 lung
API: response.call in true for active, false for inactive

Cc1[nH]nc(C(F)(F)F)c1Cc1sc2c(c1C(=O)N1C[C@](C)(O)CO1)c(=O)n(C)c(=O)n2C(C)C = false
CC1=CC2(C)/C=C(C)/C=C\CC(O)/C=C3/C=CC(=C4C(=O)OC2(CC1C)C4=O)OC3 (stereo unspecified) = false
CCOC(=O)C1=C(Nc2ccc(OC)cc2)C(N)=NC1=N = false
CN1CCN(Cc2ccc(NC(=O)c3cncc(C#Cc4ccc(N)nc4)c3)cc2C(F)(F)F)CC1 = false

Which outcome was entered for the compound CC(C)(C)NCC(O)c1ccccc1Cl (stereo unspecified) in this test? false

Field: outcome | Entry: Cc1nnc(N/N=C/c2ccc([N+](=O)[O-])o2)[nH]c1=O false

Dear colleague, could you share the recorded outcome for Clc1cnc(Nc2ccc(OCCN3CCCC3)cc2)nc1NCc1ccco1 when you have a moment? false

Can you look up the reported call for NS(=O)(=O)c1ccc(-n2nc3c(c2-c2cccs2)Cc2ccccc2-3)cc1 for me? false

Lab log entry: COc1cc2ncnc(Oc3ccc(NC(=O)Nc4ccc(CN5CCOCC5)c(C(F)(F)F)c4)c4ccccc34)c2cc1OC — outcome as called in the assay? false

Could you kindly confirm the outcome this assay logged for O=C1/C=C/[C@@H](O)[C@@H]2C[C@@H](O)C[C@H]2/C=C/CCC[C@H](CCO)O1 ? true
